Catalogue of pIC50 readings, one per entry.
- measured.on: human cloned somatostatin receptor 3 (human) (UniProt P32745)
- Sequence (P32745 whole entry): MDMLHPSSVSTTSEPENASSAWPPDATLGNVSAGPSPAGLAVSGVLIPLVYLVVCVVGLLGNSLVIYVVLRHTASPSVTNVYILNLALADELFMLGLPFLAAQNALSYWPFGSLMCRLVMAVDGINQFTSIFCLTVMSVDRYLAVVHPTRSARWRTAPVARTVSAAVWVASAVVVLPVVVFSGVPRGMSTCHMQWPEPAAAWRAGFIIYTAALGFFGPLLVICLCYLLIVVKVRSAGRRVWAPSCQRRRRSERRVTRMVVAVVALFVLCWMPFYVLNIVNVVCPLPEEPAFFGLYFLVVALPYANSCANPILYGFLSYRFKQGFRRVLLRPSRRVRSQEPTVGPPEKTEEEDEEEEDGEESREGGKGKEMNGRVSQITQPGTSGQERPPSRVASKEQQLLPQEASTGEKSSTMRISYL
- experimental.protocol: 125I-Tyr11-SRIF-14 displacement
*1 amine or outer side, *2 acyl side, *3 side chain or, on linkers, in order; H or OH if unused. Bridges are numbered along the chain shown (N, C = ends). [ ]: non-standard residue; d: D form. The star is where a group is joined. DOTA = O=C(O)CN1CCN(CC(=O)O)CCN(CC(=O)*)CCN(CC(=O)O)CC1; N(2-mercaptoethyl)Gly = O=C(CN(CCS[*:3])[*:1])[*:2]; NTEG = not defined here
Please keep in mind that pIC50 is minus log10 of the molar concentration; only the number is needed.

[
  {
    "binder": "{DOTA}-[dF]RCF[dW]KTF[N(2-mercaptoethyl)Gly]-NH2 (disulfide 3-9; also: Ga complex of DOTA) [SEQ ID NO: 4]",
    "pIC50": 9.00
  },
  {
    "binder": "{DOTA}-[dF]KCF[dW]KTF[NTEG]-NH2 (disulfide 3-9; reading uncertain; also: Ga chelated by DOTA) [SEQ ID NO: 10]",
    "pIC50": 8.62
  }
]

# get_value(readout='pIC50', item= H-[dF]RCF[dW]KTF[N(2-mercaptoethyl)Gly]-NH2 (disulfide 3-9; SMILES C[C@@H](O)[C@@H]1NC(=O)[C@H](CCCCN)NC(=O)[C@@H](Cc2c[nH]c3ccccc23)NC(=O)[C@H](Cc2ccccc2)NC(=O)[C@@H](NC(=O)[C@H](CCCNC(=N)N)NC(=O)[C@H](N)Cc2ccccc2)CSSCCN(CC(N)=O)C(=O)[C@H](Cc2ccccc2)NC1=O) [SEQ ID NO: 1] )
9.37
